measurement-protocol: Cytotoxicity against HEL
Type: cell-based
condition-description: human, HEL cells
Define the label as satisfied when CC50 is strictly less than 50 µg/mL and as not satisfied in all remaining cases.

| item-smiles | class |
| --- | --- |
| O=C(COc1cccc2ccccc12)N/N=C/c1ccccc1O | satisfied |
| COc1cc(/C=N/NC(=O)COc2cccc3ccccc23)cc(OC)c1OC | satisfied |

Query: Identify whether the compound `O=C(COc1cccc2ccccc12)N/N=C/c1cccc([N+](=O)[O-])c1` records CC50 below 50 µg/mL.
Reply: not satisfied

Query: Identify whether the compound `C/C(=N\NC(=O)COc1cccc2ccccc12)c1ccc(O)cc1O` records CC50 below 50 µg/mL.
Reply: not satisfied

Query: Identify whether the compound `CCOc1ccc(/C=N/NC(=O)COc2cccc3ccccc23)cc1O` records CC50 below 50 µg/mL.
Reply: satisfied

Query: Identify whether the compound `Cc1ccc(/C=N/NC(=O)COc2cccc3ccccc23)cc1` records CC50 below 50 µg/mL.
Reply: not satisfied

----------
measurement-protocol: Octanol-water partition coefficient, log P of the compound
Format: physicochemical
Classify by measured logP: MET if it is equal to or exceeds 4, NOT MET if it is smaller.

A selection of reference data follows.
| item-smiles | class |
| --- | --- |
| C/C(=N\NC(=O)COc1cccc2ccccc12)c1ccc(O)cc1 | MET |
| C/C(=N\NC(=O)COc1cccc2ccccc12)c1cccc([N+](=O)[O-])c1 | NOT MET |
| C/C(=N\NC(=O)COc1cccc2ccccc12)c1ccccc1Br | MET |
| COc1cc(/C=N/NC(=O)COc2cccc3ccccc23)cc(OC)c1O | NOT MET |

Query: Check if logP >= 4 (inclusive). Item: `O=C(COc1cccc2ccccc12)N/N=C/c1ccc(F)cc1`
Reply: MET

Query: Check if logP >= 4 (inclusive). Item: `C/C(=N\NC(=O)COc1cccc2ccccc12)c1ccc(C#N)cc1Br`
Reply: NOT MET

Query: Check if logP >= 4 (inclusive). Item: `C/C(=N\NC(=O)COc1cccc2ccccc12)c1ccc([N+](=O)[O-])cc1`
Reply: NOT MET

Query: Check if logP >= 4 (inclusive). Item: `C/C(=N\NC(=O)COc1cccc2ccccc12)c1ccc(Br)cc1`
Reply: NOT MET

Query: Check if logP >= 4 (inclusive). Item: `O=C(COc1cccc2ccccc12)N/N=C/c1ccccc1Br`
Reply: MET

Query: Check if logP >= 4 (inclusive). Item: `O=C(COc1cccc2ccccc12)N/N=C/c1ccc(Br)cc1`
Reply: MET

Query: Check if logP >= 4 (inclusive). Item: `O=C(COc1cccc2ccccc12)N/N=C/c1ccccc1Cl`
Reply: MET

----------
measurement-protocol: Cytotoxicity against Homo sapiens (human) MT4 cells after 4 days by MTT assay
Type: cell-based
Define the label as 1 (yes) when CC50 at 96 h is strictly less than 80 µg/mL and as 0 (no) in all remaining cases.

| item-smiles | class |
| --- | --- |
| COc1ccc(/C=N/NC(=O)COc2cccc3ccccc23)cc1 | 1 (yes) |
| Cc1ccc(/C=N/NC(=O)COc2cccc3ccccc23)cc1 | 0 (no) |
| COc1cc(/C=N/NC(=O)COc2cccc3ccccc23)cc(OC)c1O | 1 (yes) |
| C/C(=N\NC(=O)COc1cccc2ccccc12)c1ccc(Cl)cc1 | 1 (yes) |
| O=C(COc1cccc2ccccc12)N/N=C/c1cccc(Cl)c1 | 0 (no) |

Query: Identify whether the compound `O=C(COc1cccc2ccccc12)N/N=C/C=C/c1ccccc1` records CC50 at 96 h below 80 µg/mL.
Reply: 0 (no)

Query: Identify whether the compound `O=C(COc1cccc2ccccc12)N/N=C/c1ccccc1[N+](=O)[O-]` records CC50 at 96 h below 80 µg/mL.
Reply: 1 (yes)

Query: Identify whether the compound `COc1ccc(/C=N/NC(=O)COc2cccc3ccccc23)cc1OC` records CC50 at 96 h below 80 µg/mL.
Reply: 1 (yes)
